Target: recombinant His-tagged cytoplasmic domains of TRKA receptor (NTRK1, PV3144, aa 441-796) (Homo sapiens)
Construct: aa 441-796; His
Sequence (P04629 441-796): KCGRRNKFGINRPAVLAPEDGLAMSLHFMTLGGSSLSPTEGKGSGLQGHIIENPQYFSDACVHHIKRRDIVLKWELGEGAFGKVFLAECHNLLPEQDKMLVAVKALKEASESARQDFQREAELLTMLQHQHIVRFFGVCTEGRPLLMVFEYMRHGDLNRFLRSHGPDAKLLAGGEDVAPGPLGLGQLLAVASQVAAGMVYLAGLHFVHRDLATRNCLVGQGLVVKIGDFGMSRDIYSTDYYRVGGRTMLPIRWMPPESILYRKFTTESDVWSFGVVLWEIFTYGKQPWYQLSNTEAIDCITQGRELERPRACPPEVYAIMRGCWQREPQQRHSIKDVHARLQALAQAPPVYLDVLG
Assay: Isolated TRK enzyme assay (HTRF KinEASE-TK, PV3144 TrkA enzyme assay)
Details: 4 nM enzyme, 40 uM ATP, 35 min, arithmetic mean where more than one reading
QUANTITY: IC50 (nM)

These solved cases illustrate the format of a correct answer.
{"columns": ["COMPOUND", "ASSAY RESULT"],
 "data": [
  ["Cn1cnc(-c2cnc(O[C@@H]3CCN(C(=O)Cc4ccc(OC5CC5)cn4)C[C@@H]3F)c(C(N)=O)c2)c1", 4.3],
  ["NC(=O)c1cc(-c2c[nH]nn2)ccc1OC1CCN(C(=O)Cc2ccc(OC(F)(F)F)cc2)CC1", 5.3],
  ["CS(=O)(=O)Cn1cc(-c2cc(C(N)=O)c(O[C@@H]3CCN(C(=O)Cc4ccc(OC(F)(F)F)c(F)c4)C[C@@H]3F)cn2)cn1", 7.4],
  ["Cn1cnc(-c2ccc(O[C@H]3CCN(C(=O)Cc4ccc(OC5CC5)cc4)C[C@H]3F)c(C(N)=O)c2)c1 (racemic)", 1],
  ["CC(C)(O)Cn1cc(-c2ccc(O[C@@H]3CCN(C(=O)Cc4ccc(OC5CC5)cn4)C[C@H]3F)c(C(N)=O)c2)cn1 (racemic)", 6.9],
  ["C[C@H](N)c1ccc(-c2ccc(OC3CCN(C(=O)Cc4ccc(OC(F)(F)F)cc4)CC3)c(C(N)=O)c2)cc1", 2.8]
]}

1 = CC(C)(O)Cn1cc(-c2ccc(OC3CCN(C(=O)Cc4ccc(OC(F)(F)F)cc4)CC3)c(C(N)=O)c2)cn1
2 = Cn1cc(-c2ccc(OC3CCN(C(=O)Cc4ccc(OC(F)(F)F)cc4)CC3)c(C(N)=O)c2)c(C#N)n1
3 = NC(=O)c1cc(-c2nccs2)ccc1OC1CCN(C(=O)Cc2ccc(OC(F)(F)F)cc2)CC1
4 = Cc1nc(-c2cnc(O[C@H]3CCN(C(=O)Cc4ccc(OC(F)(F)F)cc4)C[C@H]3F)c(C(N)=O)c2)c[nH]1
Asked: Falling order of IC50, please. Put the labels in the order asked and list them.
Given back: 2, 3, 1, 4
(2: 13.7 nM, 3: 8.5 nM, 1: 3.9 nM, 4: 1.1 nM)

I = CC(C)(CO)n1cc(-c2ccc(OC3CCN(C(=O)Cc4ccc(OC(F)(F)F)cc4)CC3)c(C(N)=O)c2)cn1
II = Cn1cnc(-c2ccc(OC3CCN(C(=O)Cc4ccc(OC(F)(F)F)cc4)C4CC34)c(C(N)=O)c2)c1 (centres unmarked)
Asked: Select one: I or II . Criterion: greater recorded IC50. Could you answer with the label of the item you picked?
Given back: II

###

Target: recombinant His-tagged cytoplasmic domains of TRKA receptor (NTRK1, PV3144, aa 441-796) (Homo sapiens)
Construct: aa 441-796; His
Experiment: Isolated TRK enzyme assay (HTRF KinEASE-TK, PV3144 TrkA enzyme assay)
Conditions: 4 nM enzyme, 40 uM ATP, 35 min, arithmetic mean where more than one reading
pIC50: −log10 of the molar value.
QUANTITY: pIC50

These solved cases illustrate the format of a correct answer.
{"columns": ["MOLECULE", "pIC50"],
 "data": [
  ["NC(=O)c1cc(-c2cn[nH]c2)ncc1O[C@H]1CCN(C(=O)Cc2ccc(OC(F)(F)F)cc2)C[C@@H]1F", 7.98],
  ["C[C@@H](CO)n1cc(-c2ccc(OC3CCN(C(=O)Cc4ccc(OC(F)(F)F)cc4)CC3)c(C(N)=O)c2)cn1", 8.36],
  ["NC(=O)c1cc(-c2cnn(C[C@H](O)CO)c2)ccc1OC1CCN(C(=O)Cc2ccc(OC(F)(F)F)cc2)CC1", 8.10]
]}

I = Cn1cc(-c2ccc(OC3CCN(C(=O)Cc4ccc(OC(F)(F)F)c(Cl)c4)CC3)c(C(N)=O)c2)cn1
II = Cc1nc(-c2ccc(OC3CCN(C(=O)Cc4ccc(OC(F)(F)F)cc4)CC3)c(C(N)=O)c2)c[nH]1
Asked: Field: lower pIC50 | Options: I / II Could you answer with the label of the item you picked?
Given back: I
(I: 6.96, II: 7.94)
